- Tested on: Nucleic Acid
- Experimental Details: Thermal stability of F10T duplex DNA assessed as stabilization temperature at 2 uM by FRET assay
- Assay type: nucleic-acid assay
Attribute Measured: ΔTm (°C)

COc1ccc2cc3[n+](c4c2c1N(CCCCCCN)C=C4)CCc1cc2c(cc1-3)OCO2: 0.5
COc1ccc2cc3[n+](c4c2c1N(CCN(C)C)C=C4)CCc1cc2c(cc1-3)OCO2: 0
COc1ccc2cc3[n+](c4c2c1N(CCCN(C)C)C=C4)CCc1cc2c(cc1-3)OCO2: 0
COc1ccc2cc3[n+](cc2c1NCCN(C)C)CCc1cc2c(cc1-3)OCO2: 0
COc1ccc2cc3[n+](cc2c1NCCCN1CCOCC1)CCc1cc2c(cc1-3)OCO2: 0

a = COc1ccc2cc3[n+](cc2c1NCCCCCCN)CCc1cc2c(cc1-3)OCO2
b = COc1ccc2cc3[n+](cc2c1NCCCN(C)C)CCc1cc2c(cc1-3)OCO2
Request: Field: entry with larger ΔTm (options a / b ). Write down the label of the entry you select.
Response: a
(a: 2 °C, b: 1 °C)

1 = COc1ccc2cc3[n+](cc2c1OC)CCc1cc2c(cc1-3)OCO2
2 = COc1ccc2cc3[n+](c4c2c1N(CCCN1CCOCC1)C=C4)CCc1cc2c(cc1-3)OCO2
Request: Given the listed items, does 1 or 2 have the lesser reported ΔTm? Label of pick, please.
Response: 2
(2: 0 °C, 1: 2 °C)

---

- System: HL-60
- Experimental Details: Cytotoxicity against human HL60 cells after 48 hrs by MTT assay
- Assay type: functional, cell-based
- Condition Info: HL-60, 48 h
Attribute Measured: IC50 (µM)
Respond numerically; units are µM and should not be typed.

Solved entries:
COc1ccc2cc3[n+](c4c2c1N(CCCCCCN)C=C4)CCc1cc2c(cc1-3)OCO2: 2
COc1ccc2cc3[n+](cc2c1NCCCN1CCOCC1)CCc1cc2c(cc1-3)OCO2: 20.6
COc1ccc2cc3[n+](c4c2c1N(CCCN1CCOCC1)C=C4)CCc1cc2c(cc1-3)OCO2: 12.6
COc1ccc2cc3[n+](cc2c1NCCCCCCN)CCc1cc2c(cc1-3)OCO2: 5.5
COc1ccc2cc3[n+](cc2c1NCCCN(C)C)CCc1cc2c(cc1-3)OCO2: 27.5
COc1ccc2cc3[n+](cc2c1NCCN(C)C)CCc1cc2c(cc1-3)OCO2: 38
COc1ccc2cc3[n+](c4c2c1N(CCN(C)C)C=C4)CCc1cc2c(cc1-3)OCO2: 12

Quick note, IC50 for COc1ccc2cc3[n+](c4c2c1N(CCCN(C)C)C=C4)CCc1cc2c(cc1-3)OCO2 landed at 8

---

- Experimental Details: Cytotoxicity against human GLC82 cells after 48 hrs by MTT assay
- Assay type: functional, cell-based
- Condition Info: GLC82, 48 h
Listing of recorded pIC50 by entry.
// pIC50 is dimensionless: -log10 of concentration (M)

COc1ccc2cc3[n+](c4c2c1N(CCCCCCN)C=C4)CCc1cc2c(cc1-3)OCO2: 5.00

Please fill in: pIC50 reported for COc1ccc2cc3[n+](c4c2c1N(CCCN(C)C)C=C4)CCc1cc2c(cc1-3)OCO2 = 5.30

Recorded pIC50 (compound COc1ccc2cc3[n+](c4c2c1N(CCN(C)C)C=C4)CCc1cc2c(cc1-3)OCO2 ): 4.51

The compound identified as COc1ccc2cc3[n+](cc2c1NCCN(C)C)CCc1cc2c(cc1-3)OCO2 registered its pIC50 at 4.44
